tested on: Escherichia coli; test: Zone of Escherichia coli inhibition at 30 ug; type: functional
Form field: inhibition zone (IZ) (one value per entry).
The answer is to be given in mm; state only the numeric part.

Record excerpt, results attached:
Compound	Measurement target	Unit abbrev	inhibition zone (IZ)
CSC1=CC(=O)C(Br)=C[C@]12C=CNC1=C2C2=NCCc3c[nH]c(c32)C1=O	Escherichia coli	mm	0
Cn1cc2c3c1C(=O)C1=C(C3=NCC2)C2(C=C(Br)C(=O)C(Br)=C2)CCN1	Escherichia coli	mm	0
O=C1C=C(SC(=O)c2ccccc2)[C@@]2(C=CNC3=C2C2=NCCc4cn(C(=O)c5ccccc5)c(c42)C3=O)C=C1Br	Escherichia coli	mm	0
O=C1C=C2S[C@H]3C[C@]2(C=C1Br)C1=C(N3)C(=O)c2[nH]cc3c2C1=NCC3 [(+)-DISCORHABDIN B]	Escherichia coli	mm	1
O=C1C(Br)=CC2(C=C1Br)CCNC1=C2C2=NCCc3c[nH]c(c32)C1=O	Escherichia coli	mm	1

[ask] Query (compound): CSC1=CC(=O)C(Br)=C[C@]12C=CNC1=C2C2=NCCc3cn(C)c(c32)C1=O ; field requested: inhibition zone (IZ)
[reply] 0
